Biological target: Stp1 (UniProt B3LFK1)
Sequence: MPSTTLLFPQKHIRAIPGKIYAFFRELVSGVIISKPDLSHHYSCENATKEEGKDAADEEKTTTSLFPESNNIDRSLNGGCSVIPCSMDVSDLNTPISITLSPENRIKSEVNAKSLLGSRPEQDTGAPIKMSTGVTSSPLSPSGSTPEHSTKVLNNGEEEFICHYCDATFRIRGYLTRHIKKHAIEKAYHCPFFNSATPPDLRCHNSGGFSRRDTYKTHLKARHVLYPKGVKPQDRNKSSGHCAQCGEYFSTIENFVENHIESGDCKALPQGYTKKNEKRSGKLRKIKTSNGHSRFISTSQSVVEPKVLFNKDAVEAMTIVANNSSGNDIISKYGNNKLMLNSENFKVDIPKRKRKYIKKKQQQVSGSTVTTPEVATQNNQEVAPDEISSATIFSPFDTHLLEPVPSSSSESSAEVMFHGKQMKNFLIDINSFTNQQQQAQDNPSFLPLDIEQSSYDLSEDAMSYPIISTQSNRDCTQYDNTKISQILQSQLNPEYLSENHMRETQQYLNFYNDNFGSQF
Test: PBM E-score (8-mer binding enrichment) (E-score (-0.5 to 0.5)); higher = stronger / more preferred TF binding
Conditions: protein concentration: 200 nM; construct: GST-full length
Over roughly 33,000 sequences, “E-score (-0.5 to 0.5)” has its median near -0.016; the highest 2% begin near 0.32. The sample holds the highest values, similar sequences and a random draw of the others, so the mix is not that of the screen.
measured parameter: PBM E-score
Answer as a number with no unit attached.

The sequence identified as ATCGTACA registered its PBM E-score at 0.0995

The sequence identified as TATGCATA registered its PBM E-score at 0.00403

The sequence identified as AGACGCCG registered its PBM E-score at 0.405

The sequence identified as CGGGCCAG registered its PBM E-score at -0.159

The sequence identified as AGGCACAG registered its PBM E-score at 0.133

The sequence identified as CGACGCCA registered its PBM E-score at 0.106

The sequence identified as GGCCACAC registered its PBM E-score at 0.0354

The sequence identified as CGACGCCG registered its PBM E-score at 0.457

The sequence identified as AGACGCCA registered its PBM E-score at 0.00574

The sequence identified as CCTAGCCA registered its PBM E-score at -0.0258

The sequence identified as AGCTGCGA registered its PBM E-score at -0.129

The sequence identified as CGGCACAC registered its PBM E-score at 0.381

The sequence identified as TGTGCAAA registered its PBM E-score at -0.111

The sequence identified as ATTGAGGC registered its PBM E-score at 0.146

The sequence identified as ACCAGATG registered its PBM E-score at -0.146

The sequence identified as CAAAGGGG registered its PBM E-score at -0.262

The sequence identified as CGCCACAG registered its PBM E-score at -0.0135

The sequence identified as CGGCACAA registered its PBM E-score at 0.405

The sequence identified as CCAAGACA registered its PBM E-score at -0.137

The sequence identified as ACCCAACT registered its PBM E-score at -0.178

The sequence identified as ACTATTCC registered its PBM E-score at 0.0191

The sequence identified as AGGCACAA registered its PBM E-score at 0.288

Each recorded value in this set is attributed to the supplement of paper PMC3334620.
